- System: Poly(dA-dT)oligonucleotide
- ASSAY NAME: Binding affinity to poly(dAdT)2 DNA (unknown origin) assessed as change in melting temperature in sodium cacodylate buffer at pH 7 at compound:polynucleotide concentration ratio of 0.3 by UV/Vis spectrophotometric analysis
- Assay type: nucleic-acid assay
Decision: ΔTm compared against 10 °C; not below it gives YES, below it gives NO.

Look over these answered cases.
CC(C)CNc1c(C#N)c2nc3cccnc3n2c2ccccc12 : NO
CN(C)CCCNc1ccc2cc(C#N)c3nc4cccnc4n3c2c1 : YES
N#Cc1c(N2CCNCC2)c2ccc(N3CCNCC3)cc2n2c1nc1ncccc12 : YES

Inquiry: Check if ΔTm >= 10 °C (inclusive). Item: `N#Cc1c(N2CCNCC2)c2ccc(N3CCNCC3)cc2n2c1nc1cccnc12`
Reply text: YES

Inquiry: Check if ΔTm >= 10 °C (inclusive). Item: `CC(C)CNc1c(C#N)c2nc3ncccc3n2c2ccccc12`
Reply text: NO

----------
- System: HCT-116
- ASSAY NAME: Antiproliferative activity against human HCT-116 cells assessed as inhibition of cell growth incubated for 72 hrs by MTT assay
- Format: functional, cell-based
- ASSAY SETUP: HCT-116, 72 h
MEASUREMENT TYPE: pIC50
Numbers only, as −log10 of the molar value.

Worked set:
N#Cc1cc2ccc(N3CCCCC3)cc2n2c1nc1cccnc12 : 5.26
N#Cc1c(N2CCNCC2)c2ccc(N3CCNCC3)cc2n2c1nc1cccnc12 : 6.40
CC(C)CNc1ccc2cc(C#N)c3nc4ncccc4n3c2c1 : 5.52

# context switch: different compound, same pIC50
Inquiry: # return recorded pIC50 for input `N#Cc1cc2ccc(N3CCCCC3)cc2n2c1nc1ncccc12`
Reply text: 5.00

----------
- System: Poly(dA-dU)oligonucleotide
- ASSAY NAME: Binding affinity to polyA-polyU RNA (unknown origin) in sodium cacodylate buffer at pH 7 by CD spectroscopy
- Assay type: nucleic-acid assay
Active and inactive are the calls of the source. The rule behind the calls is not given here.
MEASUREMENT TYPE: Activity

CN(C)CCCNc1ccc2cc(C#N)c3nc4ncccc4n3c2c1 : Active
N#Cc1c(N2CCNCC2)c2ccc(N3CCNCC3)cc2n2c1nc1ncccc12 : Active
CN(C)CCCNc1ccc2cc(C#N)c3nc4cccnc4n3c2c1 : Active
N#Cc1c(N2CCNCC2)c2ccc(N3CCNCC3)cc2n2c1nc1cccnc12 : Active

----------
- System: Quadruplex DNA
- ASSAY NAME: Binding affinity to human Tel22 G quadruplex DNA assessed as ratio of fluorescence intensity of compound-polynucleotide complex to fluorescence intensity of compound in sodium cacodylate buffer at pH 7 at binding stoichiometry ratio of 1:1 by fluorescence spectroscopy
- Format: nucleic-acid assay
MEASUREMENT TYPE: Ratio

Worked set:
CN(C)CCCNc1ccc2cc(C#N)c3nc4cccnc4n3c2c1 : 0.7
N#Cc1c(N2CCNCC2)c2ccc(N3CCNCC3)cc2n2c1nc1ncccc12 : 0.62
CC(C)CNc1c(C#N)c2nc3cccnc3n2c2ccccc12 : 5.52
CC(C)CNc1c(C#N)c2nc3ncccc3n2c2ccccc12 : 4.75
N#Cc1c(N2CCNCC2)c2ccc(N3CCNCC3)cc2n2c1nc1cccnc12 : 0.77

# context switch: different molecule, same Ratio
Inquiry: # return recorded Ratio for input `CN(C)CCCNc1ccc2cc(C#N)c3nc4ncccc4n3c2c1`
Reply text: 0.66

----------
- ASSAY NAME: Selectivity index, ratio of IC50 for human HEK293 cells to IC50 for human HCT116 cells
- Format: toxicity
- ASSAY SETUP: HEK293 cells versus HCT116 cells, read-out: Ratio IC50
MEASUREMENT TYPE: selectivity ratio
Numbers only.

Inquiry: # return recorded selectivity ratio for input `N#Cc1c(Cl)c2ccccc2n2c1nc1ncccc12`
Reply text: 16

----------
- Tested on: Poly(dA-dT)oligonucleotide
- ASSAY NAME: Binding affinity to poly(dAdT)2 DNA (unknown origin) assessed as ratio of bound compound to polynucleotide phosphate in sodium cacodylate buffer at pH 7 by fluorescence spectroscopy based Scatchard method
- Assay type: nucleic-acid assay
Kindly supply the reported Ratio values for the records listed here.
Answers are plain numbers.

CN(C)CCCNc1ccc2cc(C#N)c3nc4ncccc4n3c2c1 : 0.4
CN(C)CCCNc1ccc2cc(C#N)c3nc4cccnc4n3c2c1 : 0.2
CC(C)CNc1c(C#N)c2nc3cccnc3n2c2ccccc12 : 0.1

Inquiry: # return recorded Ratio for input `N#Cc1c(N2CCNCC2)c2ccc(N3CCNCC3)cc2n2c1nc1cccnc12`
Reply text: 0.2

----------
- Tested on: Poly(dA-dT)oligonucleotide
- ASSAY NAME: Binding affinity to poly(dAdT)2 DNA (unknown origin) assessed as ratio of fluorescence intensity of compound-polynucleotide complex to fluorescence intensity of compound in sodium cacodylate buffer at pH 7 by fluorescence spectroscopy based Scatchard method
- Assay type: nucleic-acid assay
MEASUREMENT TYPE: Ratio
Answers are plain numbers.

Worked set:
CN(C)CCCNc1ccc2cc(C#N)c3nc4ncccc4n3c2c1 : 0.8
CN(C)CCCNc1ccc2cc(C#N)c3nc4cccnc4n3c2c1 : 0.7
N#Cc1c(N2CCNCC2)c2ccc(N3CCNCC3)cc2n2c1nc1cccnc12 : 1.5

Hey, quick one: what's Ratio for each of these?
1. N#Cc1c(N2CCNCC2)c2ccc(N3CCNCC3)cc2n2c1nc1ncccc12
2. CC(C)CNc1c(C#N)c2nc3ncccc3n2c2ccccc12
3. CC(C)CNc1c(C#N)c2nc3cccnc3n2c2ccccc12

Reply text:
1.3
8.3
10.4

----------
- Tested on: Poly(dA-dT)oligonucleotide
- ASSAY NAME: Binding affinity to poly(dAdT)2 DNA (unknown origin) assessed as binding constant in sodium cacodylate buffer at pH 7 by fluorescence spectroscopy
- Type: nucleic-acid assay
MEASUREMENT TYPE: log Ks
One number for each entry.

Worked set:
CN(C)CCCNc1ccc2cc(C#N)c3nc4cccnc4n3c2c1 : 6.9
CC(C)CNc1c(C#N)c2nc3ncccc3n2c2ccccc12 : 5.1

Hey, quick one: what's log Ks for each of these?
1. N#Cc1c(N2CCNCC2)c2ccc(N3CCNCC3)cc2n2c1nc1cccnc12
2. CC(C)CNc1c(C#N)c2nc3cccnc3n2c2ccccc12
3. N#Cc1c(N2CCNCC2)c2ccc(N3CCNCC3)cc2n2c1nc1ncccc12
4. CN(C)CCCNc1ccc2cc(C#N)c3nc4ncccc4n3c2c1

Reply text:
6.8
4.6
6.8
6.4

----------
- System: Poly(dA-dT)oligonucleotide
- ASSAY NAME: Binding affinity to poly(dAdT)2 DNA (unknown origin) in sodium cacodylate buffer at pH 7 by CD spectroscopy
- Assay type: nucleic-acid assay
The source made the active and inactive calls. The rule behind the calls is not given here.
MEASUREMENT TYPE: Activity

Worked set:
N#Cc1c(N2CCNCC2)c2ccc(N3CCNCC3)cc2n2c1nc1cccnc12 : Active
CN(C)CCCNc1ccc2cc(C#N)c3nc4ncccc4n3c2c1 : Active
CC(C)CNc1c(C#N)c2nc3cccnc3n2c2ccccc12 : Active
CN(C)CCCNc1ccc2cc(C#N)c3nc4cccnc4n3c2c1 : Active
N#Cc1c(N2CCNCC2)c2ccc(N3CCNCC3)cc2n2c1nc1ncccc12 : Active

# context switch: different molecule, same Activity
Inquiry: # return recorded Activity for input `CC(C)CNc1c(C#N)c2nc3ncccc3n2c2ccccc12`
Reply text: Active

----------
- Tested on: Quadruplex DNA
- ASSAY NAME: Binding affinity to human Tel22 G quadruplex DNA assessed as binding constant in sodium cacodylate buffer at pH 7 at binding stoichiometry ratio of 1:1 by fluorescence spectroscopy
- Format: nucleic-acid assay
Binary label based on log Ks with cut-off 5: below gives MET, not below gives NOT MET.

Look over these answered cases.
CC(C)CNc1c(C#N)c2nc3cccnc3n2c2ccccc12 : MET
CN(C)CCCNc1ccc2cc(C#N)c3nc4cccnc4n3c2c1 : NOT MET
N#Cc1c(N2CCNCC2)c2ccc(N3CCNCC3)cc2n2c1nc1ncccc12 : NOT MET
CC(C)CNc1c(C#N)c2nc3ncccc3n2c2ccccc12 : MET

Now for another entry.
Inquiry: log Ks strictly < 5 for this molecule? `CN(C)CCCNc1ccc2cc(C#N)c3nc4ncccc4n3c2c1`
Reply text: NOT MET

----------
Kindly supply the reported ΔTm values for the records listed here.
- Tested on: Calf thymus DNA
- ASSAY NAME: Binding affinity to calf thymus DNA assessed as change in melting temperature in sodium cacodylate buffer at pH 7 at compound:polynucleotide concentration ratio of 0.3 by UV/Vis spectrophotometric analysis
- Format: nucleic-acid assay
- ASSAY SETUP: Bos taurus
Numbers only, in °C.

Worked set:
N#Cc1c(N2CCNCC2)c2ccc(N3CCNCC3)cc2n2c1nc1ncccc12 : 6.6
CN(C)CCCNc1ccc2cc(C#N)c3nc4ncccc4n3c2c1 : 4.2
CC(C)CNc1c(C#N)c2nc3ncccc3n2c2ccccc12 : 0
N#Cc1c(N2CCNCC2)c2ccc(N3CCNCC3)cc2n2c1nc1cccnc12 : 7.5
CN(C)CCCNc1ccc2cc(C#N)c3nc4cccnc4n3c2c1 : 6.6

# context switch: different molecule, same ΔTm
Inquiry: # return recorded ΔTm for input `CC(C)CNc1c(C#N)c2nc3cccnc3n2c2ccccc12`
Reply text: 0.8

Taken from ChEMBL document CHEMBL4814006.
